- Tested on: 931267-113-T-J1-PDC KRAS spheroid with HUVEC/MSC, viability
- Assay overview: Anticancer human tumor 931267-113-T-J1-PDC patient-derived colon adenocarcinoma cell line growth inhibition [KRAS2]
- Conditions: second compound 10 µM; first compound 0.0316 µM; active compounds read low
- Text: Multicellular complex tumor spheroid response to RAS pathway inhibitors in combination with a targeted agents in patient-derived cell lines with oncogenic KRAS variants from multiple cancer types A high-throughput screen of multi-cell type tumor spheroids was designed to identify active combinations of targeted small molecules and KRAS pathway inhibitors. […] Compounds. […] If the clinical Cmax for an agent had not been determined, the highest concentration tested was 10 microM. […]
Measurement name: viability, T/C

Some entries whose results are on file:
### Prompt Query (compound): COc1cc2nccc(Oc3ccc(NC(=O)C4(C(=O)Nc5ccc(F)cc5)CC4)cc3)c2cc1OC + CNCc1ccccc1-c1csc(C(C)Nc2nc(C)nc3cc(OC)c(OC)cc23)c1 ; field requested: viability, T/C
### Response 0.14%

### Prompt Query (compound): O=C(c1cc(Cc2n[nH]c(=O)c3ccccc23)ccc1F)N1CCN(C(=O)C2CC2)CC1 + CNCc1ccccc1-c1csc(C(C)Nc2nc(C)nc3cc(OC)c(OC)cc23)c1 ; field requested: viability, T/C
### Response 0.16%

Now consider a different compound.
### Prompt Query (compound): CC(=O)Nc1cccc(-n2c(=O)n(C3CC3)c(=O)c3c(Nc4ccc(I)cc4F)n(C)c(=O)c(C)c32)c1 + COc1cc2nc(C)nc(NC(C)c3cc(N)cc(C(F)(F)F)c3)c2cc1OC1CCOC1 ; field requested: viability, T/C
### Response 1.54%

====

- Tested on: 931267-113-T-J1-PDC KRAS spheroid with HUVEC/MSC, viability
- Assay overview: Anticancer human tumor 931267-113-T-J1-PDC cell line growth inhibition [KRAS2];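 note: compound exposure lasted 7 days before the readout; 100% = DMSO vehicle control viability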
- Conditions: second compound 10 µM; first compound 10 µM; active compounds read low
So basically: is viability, T/C under 0.4%? Then satisfied. Not under? Then not satisfied.

### Prompt Consider CCNC(=O)CC1N=C(c2ccc(Cl)cc2)c2cc(OC)ccc2-n2c(C)nnc21 (stereo unspecified) + CNCc1ccccc1-c1csc(C(C)Nc2nc(C)nc3cc(OC)c(OC)cc23)c1 . Does its viability, T/C lie strictly below 0.4%?
### Response satisfied

New cases:
### Prompt Consider CC1OCC2(CCN(c3cnc(Sc4ccnc(N)c4Cl)c(N)n3)CC2)C1N (stereo unspecified) + C=CC(=O)N1CCN(c2nc(=O)n(-c3c(C)ccnc3C(C)C)c3nc(-c4c(O)cccc4F)c(F)cc23)C(C)C1 . Does its viability, T/C lie strictly below 0.4%?
### Response not satisfied

### Prompt Consider CC(C)NCC(C(=O)N1CCN(c2ncnc3c2C(C)CC3O)CC1)c1ccc(Cl)cc1 (stereo unspecified) + CNCc1ccccc1-c1csc(C(C)Nc2nc(C)nc3cc(OC)c(OC)cc23)c1 . Does its viability, T/C lie strictly below 0.4%?
### Response not satisfied

====

- Test system: 931267-113-T-J1-PDC KRAS spheroid with HUVEC/MSC, viability
- Assay overview: Anticancer human tumor 931267-113-T-J1-PDC cell line growth inhibition [KRAS2];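 note: compound exposure lasted 7 days before the readout; 100% = DMSO vehicle control viability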
- Conditions: second compound 0.0316 µM; first compound 0.01 µM; active compounds read low
So basically: is viability, T/C under 70%? Then class 1. Not under? Then class 0.

Take a look at these entries with their results.
### Prompt Consider Cn1ncnc1[C@H]1c2n[nH]c(=O)c3cc(F)cc(c23)N[C@@H]1c1ccc(F)cc1 + C=CC(=O)N1CCN(c2nc(OCC3CCCN3C)nc3c2CCN(c2cccc4cccc(C)c24)C3)CC1CC#N . Does its viability, T/C lie strictly below 70%?
### Response class 0

### Prompt Consider CC1COCCN1c1cc(-c2ccnn2C)c2ccnc(-c3ccn[nH]3)c2n1 (configuration not stated) + C=CC(=O)N1CCN(c2nc(OCC3CCCN3C)nc3c2CCN(c2cccc4cccc(C)c24)C3)CC1CC#N . Does its viability, T/C lie strictly below 70%?
### Response class 0

### Prompt Consider CC(C)n1nc(-c2ccc3oc(N)nc3c2)c2c(N)ncnc21 + C=CC(=O)N1CCN(c2nc(OCC3CCCN3C)nc3c2CCN(c2cccc4cccc(C)c24)C3)CC1CC#N . Does its viability, T/C lie strictly below 70%?
### Response class 1

### Prompt Consider CC(=O)OC12COC1CC(O)C1(C)C(=O)C(O)C3=C(C)C(OC(=O)C(O)C(NC(=O)OC(C)(C)C)c4ccccc4)CC(O)(C(OC(=O)c4ccccc4)C21)C3(C)C (configuration not stated) + C=CC(=O)N1CCN(c2nc(OCC3CCCN3C)nc3c2CCN(c2cccc4cccc(C)c24)C3)CC1CC#N . Does its viability, T/C lie strictly below 70%?
### Response class 0

### Prompt Consider CCN1CCN(Cc2ccc(Nc3ncc(F)c(-c4cc(F)c5nc(C)n(C(C)C)c5c4)n3)nc2)CC1 + C=CC(=O)N1CCN(c2nc(OCC3CCCN3C)nc3c2CCN(c2cccc4cccc(C)c24)C3)CC1CC#N . Does its viability, T/C lie strictly below 70%?
### Response class 0

Field: next molecule
### Prompt Consider CC(=O)Nc1cccc(-n2c(=O)n(C3CC3)c(=O)c3c(Nc4ccc(I)cc4F)n(C)c(=O)c(C)c32)c1 + C=CC(=O)N1CCN(c2nc(OCC3CCCN3C)nc3c2CCN(c2cccc4cccc(C)c24)C3)CC1CC#N . Does its viability, T/C lie strictly below 70%?
### Response class 1

====

# key: entry, value: viability, T/C
- Tested on: 931267-113-T-J1-PDC KRAS spheroid with HUVEC/MSC, viability
- Assay overview: Anticancer human tumor 931267-113-T-J1-PDC cell line growth inhibition [KRAS2];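 note: compound exposure lasted 7 days before the readout; 100% = DMSO vehicle control viability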
- Conditions: second compound 10 µM; first compound 0.0316 µM; active compounds read low
State just the number; it will be interpreted in %.

Some entries whose results are on file:
### Prompt Query (compound): Cn1nccc1Nc1nccc(-c2cc3c(s2)C(C)(C)N(CCN2CCOCC2)C3=O)n1 + COc1cc2nc(C)nc(NC(C)c3cc(N)cc(C(F)(F)F)c3)c2cc1OC1CCOC1 ; field requested: viability, T/C
### Response 3.64

### Prompt Query (compound): CC(=O)Nc1cccc(-n2c(=O)n(C3CC3)c(=O)c3c(Nc4ccc(I)cc4F)n(C)c(=O)c(C)c32)c1 + CC1OCC2(CCN(c3cnc(Sc4ccnc(N)c4Cl)c(N)n3)CC2)C1N ; field requested: viability, T/C
### Response 2.06

New cases:
### Prompt Query (compound): CC1(C)CCC(CN2CCN(c3ccc(C(=O)NS(=O)(=O)c4ccc(NCC5CCOCC5)c([N+](=O)[O-])c4)c(Oc4cnc5[nH]ccc5c4)c3)CC2)=C(c2ccc(Cl)cc2)C1 + CC1OCC2(CCN(c3cnc(Sc4ccnc(N)c4Cl)c(N)n3)CC2)C1N ; field requested: viability, T/C
### Response 83.7

### Prompt Query (compound): CC1COCCN1c1cc(-c2ccnn2C)c2ccnc(-c3ccn[nH]3)c2n1 (stereo not given) + C=CC(=O)N1CCN(c2nc(=O)n(-c3c(C)ccnc3C(C)C)c3nc(-c4c(O)cccc4F)c(F)cc23)C(C)C1 ; field requested: viability, T/C
### Response 45.1

### Prompt Query (compound): CC(=O)OC12COC1CC(O)C1(C)C(=O)C(O)C3=C(C)C(OC(=O)C(O)C(NC(=O)OC(C)(C)C)c4ccccc4)CC(O)(C(OC(=O)c4ccccc4)C21)C3(C)C (stereo not given) + C=CC(=O)N1CCN(c2nc(=O)n(-c3c(C)ccnc3C(C)C)c3nc(-c4c(O)cccc4F)c(F)cc23)C(C)C1 ; field requested: viability, T/C
### Response 116

### Prompt Query (compound): CC1COCCN1c1cc(-c2ccnn2C)c2ccnc(-c3ccn[nH]3)c2n1 (stereo not given) + CC1OCC2(CCN(c3cnc(Sc4ccnc(N)c4Cl)c(N)n3)CC2)C1N ; field requested: viability, T/C
### Response 80.5

====

- Test system: 931267-113-T-J1-PDC KRAS spheroid with HUVEC/MSC, viability
- Assay overview: Anticancer human tumor 931267-113-T-J1-PDC cell line growth inhibition [KRAS2];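 note: compound exposure lasted 7 days before the readout; 100% = DMSO vehicle control viability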
- Conditions: second compound 1 µM; first compound 0.316 µM; active compounds read low
Measurement name: viability, T/C (%)
State just the number; it will be interpreted in %.

Some entries whose results are on file:
### Prompt Query (molecule): CC1(C)CCC(CN2CCN(c3ccc(C(=O)NS(=O)(=O)c4ccc(NCC5CCOCC5)c([N+](=O)[O-])c4)c(Oc4cnc5[nH]ccc5c4)c3)CC2)=C(c2ccc(Cl)cc2)C1 + COc1cc2nc(C)nc(NC(C)c3cc(N)cc(C(F)(F)F)c3)c2cc1OC1CCOC1 ; field requested: viability, T/C
### Response 76.1

### Prompt Query (molecule): CCNC(=O)CC1N=C(c2ccc(Cl)cc2)c2cc(OC)ccc2-n2c(C)nnc21 (stereo unspecified) + CNCc1ccccc1-c1csc(C(C)Nc2nc(C)nc3cc(OC)c(OC)cc23)c1 ; field requested: viability, T/C
### Response 43.6

### Prompt Query (molecule): Cn1nccc1Nc1nccc(-c2cc3c(s2)C(C)(C)N(CCN2CCOCC2)C3=O)n1 + COc1cc2nc(C)nc(NC(C)c3cc(N)cc(C(F)(F)F)c3)c2cc1OC1CCOC1 ; field requested: viability, T/C
### Response 62.6

### Prompt Query (molecule): CC1COCCN1c1cc(-c2ccnn2C)c2ccnc(-c3ccn[nH]3)c2n1 (stereo unspecified) + COc1cc2nc(C)nc(NC(C)c3cc(N)cc(C(F)(F)F)c3)c2cc1OC1CCOC1 ; field requested: viability, T/C
### Response 13.6

### Prompt Query (molecule): CCNC(=O)CC1N=C(c2ccc(Cl)cc2)c2cc(OC)ccc2-n2c(C)nnc21 (stereo unspecified) + CC1OCC2(CCN(c3cnc(Sc4ccnc(N)c4Cl)c(N)n3)CC2)C1N ; field requested: viability, T/C
### Response 51.5

New cases:
### Prompt Query (molecule): COc1cc2nccc(Oc3ccc(NC(=O)C4(C(=O)Nc5ccc(F)cc5)CC4)cc3)c2cc1OC + C=CC(=O)N1CCN(c2nc(=O)n(-c3c(C)ccnc3C(C)C)c3nc(-c4c(O)cccc4F)c(F)cc23)C(C)C1 ; field requested: viability, T/C
### Response 98.4

### Prompt Query (molecule): CC1(C)CCC(CN2CCN(c3ccc(C(=O)NS(=O)(=O)c4ccc(NCC5CCOCC5)c([N+](=O)[O-])c4)c(Oc4cnc5[nH]ccc5c4)c3)CC2)=C(c2ccc(Cl)cc2)C1 + CC1OCC2(CCN(c3cnc(Sc4ccnc(N)c4Cl)c(N)n3)CC2)C1N ; field requested: viability, T/C
### Response 67.5
